- Assayed Target: T1, huMICA*002 alpha 3-his (human)
- T1 construct: whole construct entry: GS, alpha 3 domain, GNS, His8; also called MICA002.His; MICA*002 alpha3 construct
- T1 chain: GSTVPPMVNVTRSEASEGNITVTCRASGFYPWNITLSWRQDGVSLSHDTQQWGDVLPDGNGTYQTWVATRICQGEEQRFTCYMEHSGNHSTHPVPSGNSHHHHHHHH
- Procedure Text: SPR, Biacore 8K, antibody on Protein A chip
Test Readout: pKd
The scale used: pKd is minus the common logarithm of the concentration in molar units.

# Binder, Test Readout, Measured Value
records = [
    ("1D5v18 (antibody, IgG1, V domains shown, humanized variant of 1D5) VH: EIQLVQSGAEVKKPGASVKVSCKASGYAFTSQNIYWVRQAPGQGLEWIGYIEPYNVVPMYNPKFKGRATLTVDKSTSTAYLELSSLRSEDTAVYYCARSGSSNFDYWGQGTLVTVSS VL: DIQLTQSPSSLSASVGDRVTITCSASSSISSHYLHWYQQKPGKSPKLLIYRTSNLASGVPSRFSGSGSGTDFTLTISSLQPEDFATYYCQQGSSLPLTFGQGTKVEIK", "pKd", 8.98),
]

Now turn to the next binder.
Notebook: 1D5v28 (antibody, IgG1, V domains shown, humanized variant of 1D5) VH: EIQLVQSGAEVKKPGASVKVSCKASGYAFTSQNIYWVRQAPGQGLEWIGYIEPYNVVPLYNPKFKGRATLTVDKSTSTAYLELSSLRSEDTAVYYCARSGSSNFDYWGQGTLVTVSS VL: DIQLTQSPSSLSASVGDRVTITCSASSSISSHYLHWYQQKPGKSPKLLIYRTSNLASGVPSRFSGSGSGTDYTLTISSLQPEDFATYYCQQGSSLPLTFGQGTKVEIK , pKd read as 8.92
